Sourced from patent US12091402B2

# TARGET_DESC: ASGPR (Homo sapiens, UniProt P07306)
# Sequence (P07306 whole entry): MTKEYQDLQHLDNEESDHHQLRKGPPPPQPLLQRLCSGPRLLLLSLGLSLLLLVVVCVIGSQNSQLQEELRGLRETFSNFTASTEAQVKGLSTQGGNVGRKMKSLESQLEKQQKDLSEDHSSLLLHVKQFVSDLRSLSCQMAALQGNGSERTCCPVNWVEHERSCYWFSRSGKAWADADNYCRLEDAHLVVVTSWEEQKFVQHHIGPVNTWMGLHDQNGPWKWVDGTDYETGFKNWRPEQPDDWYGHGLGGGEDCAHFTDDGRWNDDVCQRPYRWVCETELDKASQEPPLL
# TEST_DESCRIPTION: Affinity to ASGPR by surface plasmon resonance (SPR)
pKd: −log10 of the molar value.
Below, each entry is listed alongside its reported pKd.

| COMPOUND | pKd |
| --- | --- |
| O=C(CCOCC(COCCC(=O)NCCOCCOCCOCCOC[C@H]1OC[C@H](Nc2nccc(C(F)(F)F)n2)[C@@H](O)[C@H]1O)NC(=O)COCCOCCOCCNc1ccc([N+](=O)[O-])cc1[N+](=O)[O-])NCCOCCOCCOCCOC[C@H]1OC[C@H](Nc2nccc(C(F)(F)F)n2)[C@@H](O)[C@H]1O [Compound 32] | > 7.00 |
| O=C(O)CC(=O)NC(COCCC(=O)NCCOCCOCCOCCOC[C@H]1OC[C@H](Nc2cncc(C(F)(F)F)n2)[C@@H](O)[C@H]1O)COCCC(=O)NCCOCCOCCOCCOC[C@H]1OC[C@H](Nc2cncc(C(F)(F)F)n2)[C@@H](O)[C@H]1O [A34] | > 7.00 |
| OC[C@H]1OC[C@H](Nc2nccnc2C(F)(F)F)[C@@H](O)[C@H]1O [A101] | 5.00 to 6.00 |
| [N-]=[N+]=NC[C@H]1OC[C@H](Nc2nccc(C(F)(F)F)n2)[C@@H](O)[C@H]1O [A59] | > 6.00 |
| O[C@@H]1[C@H](O)[C@@H](Nc2cncc(C(F)(F)F)n2)CO[C@@H]1CNc1ccccc1 [A95] | 5.00 to 6.00 |
| COc1cccc(-n2cc([C@H]3OC[C@H](Nc4nccc(C(F)(F)F)n4)[C@@H](O)[C@H]3O)nn2)c1 [A61] | 4.00 to 5.00 |

* * *

Below, each entry is listed alongside its reported pKd.
# TARGET_DESC: IgG
# TEST_DESCRIPTION: Affinity to IgG by surface plasmon resonance (SPR)
# Assay type: binding
# CONDITION_PARAMETERS: SPR; read-out: IgG KD
pKd: −log10 of the molar value. Where a SMILES comes first, the peptide text is derived from it. Bridges are numbered along the chain shown (N, C = ends). [ ]: non-standard residue; d: D form. Pro(4S-NH2) = N[C@@H]1CN[C@H](C(=O)O)C1; hSer = N[C@@H](CCO)C(=O)O
OUTCOME_MEASURE: pKd

| COMPOUND | TARGET_DESC | OUTCOME_MEASURE | RESULT |
| --- | --- | --- | --- |
| CC(C)C[C@@H]1NC(=O)[C@H](Cc2cnc[nH]2)NC(=O)[C@H](Cc2c[nH]c3ccccc23)NC(=O)[C@H](C)NC(=O)[C@@H]2CSSC[C@H](NC(=O)[C@H](Cc3c[nH]c4ccccc34)NC(=O)[C@H](C(C)C)NC(=O)[C@H](CC(C)C)NC(=O)[C@H](CCC(=O)O)NC(=O)CNC1=O)C(=O)N[C@@H]([C@@H](C)O)C(=O)N1CCC[C@@H]1C(=O)N1C[C@@H](N)C[C@H]1C(=O)N[C@@H](CC(N)=O)C(=O)N2 [Intermediate 13] (cyclo(AWHLGELVWCT[dP][Pro(4S-NH2)]NC); disulfide 10-15) | IgG | pKd | > 7.00 |
| O=C(CCOCC(COCCC(=O)NCCOCCOCCOCCOC[C@H]1OC[C@H](Nc2nccc(C(F)(F)F)n2)[C@@H](O)[C@H]1O)NC(=O)COCCOCCOCCNc1ccc([N+](=O)[O-])cc1[N+](=O)[O-])NCCOCCOCCOCCOC[C@H]1OC[C@H](Nc2nccc(C(F)(F)F)n2)[C@@H](O)[C@H]1O [Compound 32] | IgG | pKd | > 7.00 |
| CC(C)C[C@@H]1NC(=O)[C@H](Cc2cnc[nH]2)NC(=O)[C@H](Cc2c[nH]c3ccccc23)NC(=O)[C@H](C)NC(=O)[C@@H]2CSSC[C@H](NC(=O)[C@H](Cc3c[nH]c4ccccc34)NC(=O)[C@H](C(C)C)NC(=O)[C@H](CC(C)C)NC(=O)[C@H](CCC(=O)O)NC(=O)CNC1=O)C(=O)N[C@@H]([C@@H](C)O)C(=O)N1CCC[C@@H]1C(=O)N1C[C@@H](NC(=O)c3ccc(C(=O)NC[C@H]4OC[C@H](Nc5cncc(C(F)(F)F)n5)[C@@H](O)[C@H]4O)cc3)C[C@H]1C(=O)N[C@@H](CC(=O)O)C(=O)N2 [Compound 67] | IgG | pKd | > 7.00 |
| CC(C)C[C@@H]1NC(=O)[C@H](Cc2cnc[nH]2)NC(=O)[C@H](Cc2c[nH]c3ccccc23)NC(=O)[C@H](C)NC(=O)[C@@H]2CSSC[C@H](NC(=O)[C@H](Cc3c[nH]c4ccccc34)NC(=O)[C@H](C(C)C)NC(=O)[C@H](CC(C)C)NC(=O)[C@H](CCC(=O)O)NC(=O)CNC1=O)C(=O)N[C@@H]([C@@H](C)O)C(=O)N1CCC[C@@H]1C(=O)N1C[C@@H](NC(=O)c3ccc(N4CCC(CN5CCN(C[C@H]6OC[C@H](Nc7cncc(C(F)(F)F)n7)[C@@H](O)[C@H]6O)CC5)CC4)nn3)C[C@H]1C(=O)N[C@@H](CC(=O)O)C(=O)N2 [Compound 66] | IgG | pKd | > 7.00 |
| CC(C)C[C@@H]1NC(=O)[C@H](C)NC(=O)CNC(=O)[C@H](CC(C)C)NC(=O)[C@H](Cc2cnc[nH]2)NC(=O)[C@H](Cc2c[nH]c3ccccc23)NC(=O)[C@H](C)NC(=O)[C@@H]2CSSC[C@H](NC(=O)[C@H](Cc3c[nH]c4ccccc34)NC(=O)[C@H](C(C)C)NC1=O)C(=O)N[C@@H]([C@@H](C)O)C(=O)N1CCC[C@@H]1C(=O)N1C[C@@H](N)C[C@H]1C(=O)N[C@@H](C)C(=O)N2 [Intermediate 25] (cyclo(ACAWHLGALVWCT[dP][Pro(4S-NH2)]); disulfide 2-12) | IgG | pKd | > 7.00 |
| CC(C)C[C@@H]1NC(=O)[C@H](Cc2cnc[nH]2)NC(=O)[C@H](Cc2c[nH]c3ccccc23)NC(=O)[C@H](C)NC(=O)[C@@H]2CSSC[C@H](NC(=O)[C@H](Cc3c[nH]c4ccccc34)NC(=O)[C@H](C(C)C)NC(=O)[C@H](CC(C)C)NC(=O)[C@H](CCC(N)=O)NC(=O)CNC1=O)C(=O)N[C@@H]([C@@H](C)O)C(=O)N1CCC[C@@H]1C(=O)N1C[C@@H](N)C[C@H]1C(=O)N[C@@H](CC(=O)O)C(=O)N2 [Intermediate 18] (cyclo(AWHLGQLVWCT[dP][Pro(4S-NH2)]DC); disulfide 10-15) | IgG | pKd | > 7.00 |
| CC(C)C[C@@H]1NC(=O)[C@H](Cc2cnc[nH]2)NC(=O)[C@H](Cc2c[nH]c3ccccc23)NC(=O)[C@H](CCO)NC(=O)[C@@H]2CSSC[C@H](NC(=O)[C@H](Cc3c[nH]c4ccccc34)NC(=O)[C@H](C(C)C)NC(=O)[C@H](CC(C)C)NC(=O)[C@H](CCC(=O)O)NC(=O)CNC1=O)C(=O)N[C@@H]([C@@H](C)O)C(=O)N1CCC[C@@H]1C(=O)N1C[C@@H](N)C[C@H]1C(=O)N[C@@H](CC(=O)O)C(=O)N2 [Intermediate 21] (cyclo(CT[dP][Pro(4S-NH2)]DC[hSer]WHLGELVW); disulfide 1-6) | IgG | pKd | > 7.00 |
| CC(C)C[C@@H]1NC(=O)[C@H](Cc2cnc[nH]2)NC(=O)[C@H](Cc2c[nH]c3ccccc23)NC(=O)[C@H](C)NC(=O)[C@@H]2CSSC[C@H](NC(=O)[C@H](Cc3c[nH]c4ccccc34)NC(=O)[C@H](C(C)C)NC(=O)[C@H](CC(C)C)NC(=O)[C@H](CCC(=O)O)NC(=O)CNC1=O)C(=O)N[C@@H]([C@@H](C)O)C(=O)N1CCC[C@@H]1C(=O)N1C[C@@H](NC(=O)COCCOCC(=O)NC[C@H]3OC[C@H](Nc4cncc(C(F)(F)F)n4)[C@@H](O)[C@H]3O)C[C@H]1C(=O)N[C@@H](CC(=O)O)C(=O)N2 [Compound 42] | IgG | pKd | > 7.00 |
